# Run Description: self-splicing fitness, log relative to wild type (ln ratio); higher = more splicing; Tetrahymena group I intron in knt gene, E. coli kanamycin selection, DiMSum; sequences stand for … in CUCUCU…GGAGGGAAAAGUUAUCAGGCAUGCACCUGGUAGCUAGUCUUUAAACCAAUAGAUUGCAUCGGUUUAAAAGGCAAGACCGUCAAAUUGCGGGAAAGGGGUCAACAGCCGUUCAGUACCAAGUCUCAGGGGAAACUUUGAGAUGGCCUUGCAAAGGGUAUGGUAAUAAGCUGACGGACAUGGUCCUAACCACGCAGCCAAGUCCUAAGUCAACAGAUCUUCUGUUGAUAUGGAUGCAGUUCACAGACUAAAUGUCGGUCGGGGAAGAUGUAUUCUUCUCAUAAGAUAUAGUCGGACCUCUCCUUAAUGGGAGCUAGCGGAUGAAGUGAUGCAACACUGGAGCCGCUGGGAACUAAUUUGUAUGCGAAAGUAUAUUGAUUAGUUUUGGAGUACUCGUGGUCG;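 further: selection with 25 µg/mL kanamycin versus none on LB agar overnight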
# Test Parameters: 37 °C
Label rule, in plain words: self-splicing fitness (ln) of -0.9 and up is Satisfied, under -0.9 is Not satisfied.

INSERT INTO assay_data (seq_string, label) VALUES
  ('ACGAAGCAAUAUUACGUGGA', 'Not satisfied'),
  ('UAUCAGCAAUAUUACGUAGA', 'Satisfied');

Could you tell me if the measured self-splicing fitness (ln) of GCCUAGCAAUAUUACGUGUA reaches -0.9 or more?
Satisfied

Could you tell me if the measured self-splicing fitness (ln) of CCAUAGCAAUAUUACGUCUU reaches -0.9 or more?
Not satisfied

Could you tell me if the measured self-splicing fitness (ln) of CCAGAGCAAUAUUACGCAAA reaches -0.9 or more?
Not satisfied

Could you tell me if the measured self-splicing fitness (ln) of GACUAGCAAUAUUACGCCUU reaches -0.9 or more?
Satisfied

----------
# Run Description: self-splicing fitness, log relative to wild type (ln ratio); higher = more splicing; Tetrahymena group I intron in knt gene, E. coli kanamycin selection, DiMSum; sequences stand for … in CUCUCU…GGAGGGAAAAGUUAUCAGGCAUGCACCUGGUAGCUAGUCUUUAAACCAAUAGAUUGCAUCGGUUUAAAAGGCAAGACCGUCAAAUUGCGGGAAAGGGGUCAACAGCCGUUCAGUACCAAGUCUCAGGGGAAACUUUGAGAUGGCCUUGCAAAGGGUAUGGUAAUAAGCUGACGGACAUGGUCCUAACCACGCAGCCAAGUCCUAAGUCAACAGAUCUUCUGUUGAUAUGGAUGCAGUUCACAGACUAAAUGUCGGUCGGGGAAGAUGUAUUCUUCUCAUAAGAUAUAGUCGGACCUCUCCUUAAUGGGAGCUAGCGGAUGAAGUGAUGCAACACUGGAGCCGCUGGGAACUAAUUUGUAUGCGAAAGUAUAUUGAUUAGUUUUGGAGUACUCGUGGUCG
# Test Parameters: 30 °C
Give self-splicing fitness (ln) for every item shown.

Guide cases for self-splicing fitness (ln), answers given:
INSERT INTO results (seq_string, observed) VALUES
  ('UGCCAGCAAUAUUACGACCC', -3.56),
  ('GAUGAGCAAUAUUACGGAUG', -2.78),
  ('AGGCAGCAAUAUUACGACUG', -1.99);

# batch size: 2; output self-splicing fitness (ln) per entry
1. CCACAGCAAUAUUACGUCCA
2. GCGUAGCAAUAUUACGGGAU

1. -3.23
2. -1.51
